Target: DAPK2 (human) (UniProt Q9UIK4)
Sequence (Q9UIK4 whole entry, looked up): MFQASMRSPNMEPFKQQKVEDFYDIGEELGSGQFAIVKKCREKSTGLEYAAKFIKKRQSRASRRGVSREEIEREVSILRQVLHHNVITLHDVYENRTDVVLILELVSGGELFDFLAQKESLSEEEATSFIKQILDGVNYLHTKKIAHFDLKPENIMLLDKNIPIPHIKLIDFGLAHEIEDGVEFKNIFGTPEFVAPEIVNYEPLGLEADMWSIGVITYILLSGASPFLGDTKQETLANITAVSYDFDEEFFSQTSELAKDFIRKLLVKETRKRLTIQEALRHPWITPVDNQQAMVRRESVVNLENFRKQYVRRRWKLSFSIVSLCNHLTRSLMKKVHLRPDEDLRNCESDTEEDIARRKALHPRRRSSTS
Experiment: radiometric filter-binding kinase assay, Kinase HotSpot
Conditions: compound 0.5 µM; ATP 10 µM

substance_smiles	residual activity (%)
O=C(c1ccccc1)c1ccc(N2CCOCC2)cc1O	102
O=c1c2ccccc2[nH]c(=S)n1CCN1CCC(=C(c2ccc(F)cc2)c2ccc(F)cc2)CC1	104
N#Cc1c(NC(=O)c2cccc3ccccc23)sc2c1CCCC2	105
Cc1cc(Nc2nc(-c3ccccc3)nc3ccccc23)n[nH]1	89.5
N#CCCc1ccc2c(c1)-c1[nH]c3ccc([N+](=O)[O-])cc3c1CC(=O)N2	96.5
COc1cc2c(N3CCN(C(=O)Nc4ccc(OC(C)C)cc4)CC3)ncnc2cc1OCCCN1CCCCC1	104
c1ccc(-c2cnc(Nc3ccc(OCCN4CCCC4)cc3)s2)cc1	90.3
O=c1c(-c2ccc(F)cc2)c(-c2ccncc2)[nH]n1-c1ccc(Cl)cc1	104
O=S(=O)(NCCNC/C=C/c1ccc(Br)cc1)c1cccc2cnccc12	72.1

* * *

// reported residual activity per item
Target: EPHB4 (human)
Test: radiometric filter-binding kinase assay, Kinase HotSpot
Settings: compound 0.5 µM; ATP 10 µM
measured_parameter: residual activity (%)

substance_smiles	value_reported
CCOc1cc2ncnc(Nc3cccc(Br)c3)c2cc1OCC	43
O=C1NC(=O)c2c1c1c3ccccc3[nH]c1c1[nH]c3cc(Br)ccc3c21	86.5
O=c1cc(N2CCOCC2)oc2c(-c3ccccc3)cccc12	99.5
COc1cc2c(Nc3ccc(Br)cc3F)ncnc2cc1OCC1CCN(C)CC1	13
CCc1nc(-c2ccc(OC)cc2)[nH]c1-c1ccncc1	90.3
FC(F)(F)c1ccc(/C=C/c2nc(COc3ccc(CCCCn4ccnn4)cc3)co2)cc1	92.2
Cc1cc(Nc2nc(-c3ccccc3)nc3ccccc23)n[nH]1	91.1
COc1cccc(-c2cc(=O)c3ccccc3o2)c1N	101
c1ccc(-c2cnc(Nc3ccc(OCCN4CCCC4)cc3)s2)cc1	91.9
O=c1[nH]c2ccccc2n1C1CCN(Cc2ccc(-c3nc4cc5[nH]cnc5cc4nc3-c3ccccc3)cc2)CC1	96.4
O=S(=O)(NCCNC/C=C/c1ccc(Br)cc1)c1cccc2cnccc12	108
COc1cc2c(N3CCN(C(=O)Nc4ccc(OC(C)C)cc4)CC3)ncnc2cc1OCCCN1CCCCC1	95
Nc1ncnc2c1cnn2-c1ccccc1	103
COc1cc2ncnc(Nc3ccc(O)c(Br)c3)c2cc1OC	52.2
N/C(=N\N=C/c1ccc(-c2cccc([N+](=O)[O-])c2)o1)N[N+](=O)[O-]	91.6
CCCCc1c(-c2ccc(O)cc2)[nH]c2nccnc12	86
O=c1c(-c2ccc(F)cc2)c(-c2ccncc2)[nH]n1-c1ccc(Cl)cc1	97.2
N#Cc1c(NC(=O)c2cccc3ccccc23)sc2c1CCCC2	99.5
N#CCCc1ccc2c(c1)-c1[nH]c3ccc([N+](=O)[O-])cc3c1CC(=O)N2	82.2
Cn1cc(/C=C2\C(=O)Nc3ccc(S(N)(=O)=O)cc32)c2ccccc21	57.4
O=C1NC(=O)c2cc(Nc3ccc(F)cc3)c(Nc3ccc(F)cc3)cc21	108
N#C/C(=C1/Nc2ccccc2S1)c1ccnc(NCCc2cccnc2)n1	99.7

* * *

Biological target: EPHA2 (human) (UniProt P29317)
Sequence (P29317 whole entry, looked up): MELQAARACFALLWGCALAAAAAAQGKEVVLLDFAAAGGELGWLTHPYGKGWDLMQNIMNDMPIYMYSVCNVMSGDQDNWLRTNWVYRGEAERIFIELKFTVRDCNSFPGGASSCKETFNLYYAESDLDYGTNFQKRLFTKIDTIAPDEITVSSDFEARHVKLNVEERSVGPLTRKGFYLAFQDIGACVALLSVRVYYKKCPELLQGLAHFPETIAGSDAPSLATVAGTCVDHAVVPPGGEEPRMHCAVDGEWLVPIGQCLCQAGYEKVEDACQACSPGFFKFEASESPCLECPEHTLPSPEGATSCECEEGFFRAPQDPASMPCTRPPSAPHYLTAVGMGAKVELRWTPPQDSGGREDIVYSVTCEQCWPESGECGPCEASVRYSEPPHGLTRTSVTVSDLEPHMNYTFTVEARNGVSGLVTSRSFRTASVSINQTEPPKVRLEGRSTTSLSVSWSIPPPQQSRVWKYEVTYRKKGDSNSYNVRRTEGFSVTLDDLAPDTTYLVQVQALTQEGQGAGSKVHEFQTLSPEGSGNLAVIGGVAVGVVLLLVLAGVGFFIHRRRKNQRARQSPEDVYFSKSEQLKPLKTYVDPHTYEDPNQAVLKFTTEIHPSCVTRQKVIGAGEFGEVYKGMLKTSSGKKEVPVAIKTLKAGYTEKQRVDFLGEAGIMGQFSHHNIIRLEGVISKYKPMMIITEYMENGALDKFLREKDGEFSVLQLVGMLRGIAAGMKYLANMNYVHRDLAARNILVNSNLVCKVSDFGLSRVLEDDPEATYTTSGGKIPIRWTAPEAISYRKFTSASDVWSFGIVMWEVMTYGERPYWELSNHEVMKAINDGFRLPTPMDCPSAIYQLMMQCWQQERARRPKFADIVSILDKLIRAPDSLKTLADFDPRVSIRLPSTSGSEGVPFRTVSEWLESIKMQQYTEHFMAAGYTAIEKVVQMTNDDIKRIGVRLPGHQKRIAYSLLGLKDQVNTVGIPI
Test: radiometric filter-binding kinase assay, Kinase HotSpot
Settings: compound 0.5 µM; ATP 10 µM
Listed here are compounds together with their documented residual activity.
measured_parameter: residual activity (%)

substance_smiles	value_reported
O=c1c2ccccc2[nH]c(=S)n1CCN1CCC(=C(c2ccc(F)cc2)c2ccc(F)cc2)CC1	105
CN[C@@H]1C[C@H]2O[C@@](C)([C@@H]1OC)n1c3ccccc3c3c4c(c5c6ccccc6n2c5c31)C(=O)NC4	21.3
COc1cc2ncnc(Nc3ccc(O)c(Br)c3)c2cc1OC	80.6
O=C1NC(=O)c2c1c1c3ccccc3[nH]c1c1[nH]c3cc(Br)ccc3c21	99.2
COc1cc2c(N3CCN(C(=O)Nc4ccc(OC(C)C)cc4)CC3)ncnc2cc1OCCCN1CCCCC1	102
O=C(O)c1ccc2c3c1cccc3c(=O)n1c3ccccc3nc21	102
N#CCCc1ccc2c(c1)-c1[nH]c3ccc([N+](=O)[O-])cc3c1CC(=O)N2	93.6
Nc1ncnc2c1cnn2-c1ccccc1	96
O=c1c(-c2ccc(F)cc2)c(-c2ccncc2)[nH]n1-c1ccc(Cl)cc1	101
CCOc1cc2ncnc(Nc3cccc(Br)c3)c2cc1OCC	80.3
N#C/C(=C1/Nc2ccccc2S1)c1ccnc(NCCc2cccnc2)n1	103
COc1cc2c(Nc3ccc(Br)cc3F)ncnc2cc1OCC1CCN(C)CC1	21.5
O=c1[nH]c2ccccc2n1C1CCN(Cc2ccc(-c3nc4cc5[nH]cnc5cc4nc3-c3ccccc3)cc2)CC1	103
COc1cccc(-c2cc(=O)c3ccccc3o2)c1N	105
O=C1NC(=O)c2cc(Nc3ccc(F)cc3)c(Nc3ccc(F)cc3)cc21	94.3
Cc1cc(Nc2nc(-c3ccccc3)nc3ccccc23)n[nH]1	94.8
O=C(c1ccccc1)c1ccc(N2CCOCC2)cc1O	104
O=S(=O)(NCCNC/C=C/c1ccc(Br)cc1)c1cccc2cnccc12	101
COc1cc2c(cc1OC)-c1[nH]nc(Nc3cccc(F)c3)c1C2	93.8
CCCCc1c(-c2ccc(O)cc2)[nH]c2nccnc12	81.7
O=c1cc(N2CCOCC2)oc2c(-c3ccccc3)cccc12	104
CCc1nc(-c2ccc(OC)cc2)[nH]c1-c1ccncc1	102
FC(F)(F)c1ccc(/C=C/c2nc(COc3ccc(CCCCn4ccnn4)cc3)co2)cc1	102
c1ccc(-c2cnc(Nc3ccc(OCCN4CCCC4)cc3)s2)cc1	108
Cn1cc(/C=C2\C(=O)Nc3ccc(S(N)(=O)=O)cc32)c2ccccc21	93
